Can you tell me log10 Ki for the items I'm about to list?
- Assay: Displacement of [3H]prazosin from adrenergic alpha1 receptor in pig cortical membranes
- Assay type: cell membranes, Sus scrofa
Kindly note that the scale is log10 and the underlying Ki is in nM.

Request: Can you look up the measured log10 Ki of Brc1cccc(N2CCN(Cc3cc4ccccn4n3)CC2)n1 for me?
Result: 2.38

Request: Note, next up: Oc1ccccc1N1CCN(Cc2cnn3ccccc23)CC1
Result: 1.41

Request: Note, next up: Brc1cccc(N2CCN(Cc3cnn4ccccc34)CC2)n1
Result: 1.32

Request: Note, next up: Fc1cccc(N2CCN(Cc3cc4ccccn4n3)CC2)n1
Result: 2.96

Request: Note, next up: FCCOc1ccc(N2CCN(Cc3cnn4ccccc34)CC2)cc1
Result: 3.65

Request: Note, next up: FCCOc1ccccc1N1CCN(Cc2cc3ccccn3n2)CC1
Result: 1.60

Request: Note, next up: Fc1cccc(N2CCN(Cc3cnn4ccccc34)CC2)n1
Result: 1.94

Request: Note, next up: Clc1ccc(N2CCN(Cc3cnn4ccccc34)CC2)cc1 [FAUC 113]
Result: 2.38

Request: Note, next up: Clc1ccc(N2CCN(Cc3cc4ccccn4n3)CC2)cc1
Result: 2.43

Request: Note, next up: Oc1ccc(N2CCN(Cc3cnn4ccccc34)CC2)cc1
Result: 1.91

Request: Note, next up: FCCOc1ccccc1N1CCN(Cc2cnn3ccccc23)CC1
Result: 0.73

Request: Note, next up: FCCOc1ccc(N2CCN(Cc3cc4ccccn4n3)CC2)cc1
Result: 3.61

====

- Measurement Target: UniProt P50129
- Sequence (P50129 whole entry): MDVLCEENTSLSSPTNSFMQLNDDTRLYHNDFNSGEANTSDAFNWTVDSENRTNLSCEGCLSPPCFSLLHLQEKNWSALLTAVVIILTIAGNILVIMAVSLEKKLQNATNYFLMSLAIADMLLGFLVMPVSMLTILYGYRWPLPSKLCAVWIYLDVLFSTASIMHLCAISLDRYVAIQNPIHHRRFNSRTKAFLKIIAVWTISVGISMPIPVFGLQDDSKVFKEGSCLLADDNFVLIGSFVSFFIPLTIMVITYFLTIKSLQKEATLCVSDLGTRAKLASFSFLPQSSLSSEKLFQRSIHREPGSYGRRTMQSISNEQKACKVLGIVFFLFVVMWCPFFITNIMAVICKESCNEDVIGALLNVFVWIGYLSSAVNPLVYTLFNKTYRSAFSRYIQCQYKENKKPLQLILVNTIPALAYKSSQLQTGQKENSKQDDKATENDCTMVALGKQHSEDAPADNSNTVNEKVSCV
Can you tell me Ki for the items I'm about to list?
Please state the figure in µM; there is no need to write the unit.

Request: Requested read-out Ki, target or system UniProt P50129, entry Fc1cccc(N2CCN(Cc3cc4ccccn4n3)CC2)n1
Result: 9.7

Request: Note, next up: Oc1ccccc1N1CCN(Cc2cnn3ccccc23)CC1
Result: 1.5

Request: Note, next up: FCCOc1ccccc1N1CCN(Cc2cnn3ccccc23)CC1
Result: 2.9

Request: Note, next up: Fc1cccc(N2CCN(Cc3cnn4ccccc34)CC2)n1
Result: 5.4

====

- Assay: Stability in human serum at 37 degC after 90 mins
- Assay type: ADME, cell-free
- Condition Parameters: read-out: Stability
Can you tell me remaining at 1.5 h for the items I'm about to list?

Request: Can you look up the measured remaining at 1.5 h of [18F]CCOc1ccc(N2CCN(Cc3cnn4ccccc34)CC2)cc1 for me?
Result: > 96%

Request: Note, next up: [18F]CCOc1ccc(N2CCN(Cc3cc4ccccn4n3)CC2)cc1
Result: > 99%

Request: Note, next up: [18F]c1cccc(N2CCN(Cc3cnn4ccccc34)CC2)n1
Result: > 98%

Request: Note, next up: [18F]c1cccc(N2CCN(Cc3cc4ccccn4n3)CC2)n1
Result: > 99%

====

Can you tell me pKi for the items I'm about to list?
- Assay: Displacement of [3H]spiperone from cloned human dopamine D4.4 receptor expressed in CHO cells
- Format: cell-based
The value called pKi is obtained by taking minus log10 of the concentration in mol/L.

Request: Can you look up the measured pKi of Fc1cccc(N2CCN(Cc3cnn4ccccc34)CC2)n1 for me?
Result: 8.06

Request: Note, next up: FCCOc1ccccc1N1CCN(Cc2cnn3ccccc23)CC1
Result: 8.80

Request: Note, next up: FCCOc1ccc(N2CCN(Cc3cc4ccccn4n3)CC2)cc1
Result: 7.89

Request: Note, next up: Oc1ccc(N2CCN(Cc3cnn4ccccc34)CC2)cc1
Result: 7.70

Request: Note, next up: Clc1ccc(N2CCN(Cc3cnn4ccccc34)CC2)cc1
Result: 8.24

Request: Note, next up: Brc1cccc(N2CCN(Cc3cnn4ccccc34)CC2)n1
Result: 8.59

Where do these numbers come from? They come from ChEMBL document CHEMBL1143102.
